Reference for the values: ChEMBL document CHEMBL1140081

- assay info: Metabolic stability in iv dosed Sprague-Dawley rat bile assessed as drug recovery
- Format: ADME, organism-based
- stated conditions: read-out: Drug uptake
property measured: dose excreted
Respond with a number, then the unit of measure.

Give a short answer stating reported dose excreted for "Cc1nnc(C(=O)NC(C)(C)c2nc(C(=O)NCc3ccc([19F])cc3)c(O)c(=O)n2C)o1" . 10%

---

- assay info: Metabolic stability in iv dosed dog urine assessed as drug recovery after 0 to 24 hrs
- Assay type: ADME, organism-based, Canis lupus familiaris
- stated conditions: read-out: Drug uptake
property measured: dose excreted (%)
Just the number please, in %, no unit attached.

Give a short answer stating reported dose excreted for "Cc1nnc(C(=O)NC(C)(C)c2nc(C(=O)NCc3ccc([19F])cc3)c(O)c(=O)n2C)o1" . 30
